Biological target: Human carbonic anhydrase II (hCA-II) (Homo sapiens (Human))
Assay: Human carbonic anhydrase-II inhibition assay (absorbance, 4-nitrophenyl acetate substrate)
Format: biochemical
Settings: hCA II 8 nM, 4-NPA 2.5 mM, absorbance 340 nm, room temperature 1 hour; read-out: CA-II IC50
Reported metric: IC50 (nM)

Worked cases, IC50 given:
                           substance_smiles  reported_metric  unit_of_measure  reported_result
0  CC(C)(C)C(=O)Nc1cc(Cl)cnc1COC(=O)N1CC2=C(C1)CN(C(=O)c1ccc(S(N)(=O)=O)cc1F)C2             IC50               nM             12.9
1  CC(C)(C)C(=O)Nc1cc(C(F)(F)F)cnc1COC(=O)N1CC2=C(C1)CN(S(=O)(=O)c1ccc(S(N)(=O)=O)cc1F)C2             IC50               nM             17.6
2  CC(C)(C)C(=O)Nc1cc(C#N)cnc1COC(=O)N1CC2=C(C1)CN(C(=O)c1cc(F)c(S(N)(=O)=O)cc1F)C2             IC50               nM               18

[a] CC(C)(C)C(=O)Nc1cc(Cl)cnc1COC(=O)N1CC2=C(C1)CN(C(=O)c1ccc(S(N)(=O)=O)c(F)c1F)C2
[b] CC(C)(C)C(=O)Nc1ccc(Cl)nc1COC(=O)N1CC2=C(C1)CN(C(=O)c1ccc(S(N)(=O)=O)c(F)c1F)C2
[c] CC(C)(C)C(=O)Nc1ccc(Cl)nc1COC(=O)N1CC2=C(C1)CN(C(=O)c1c(F)cc(S(N)(=O)=O)cc1F)C2
[d] CC(C)(C)C(=O)Nc1cc(C(F)(F)F)cnc1COC(=O)N1CC2=C(C1)CN(C(=O)c1ccc(S(N)(=O)=O)cn1)C2
stdin: Your job: order these 4 records by IC50, ascending. Respond with the label ranking, as requested.
stdout: c, b, d, a
